Quick list: IC50 per entry.
System: MCF-7 human mammary adenocarcinoma cell line
Method summary: anti-tumour effect in vitro, growth of MCF-7 cells (bioluminescence ATP assay)
Format: cell-based
Test settings: MCF-7, Table 3; read-out: Antitumour effect (IC50 = concentration of compound where 50% inhibition of cell growth could be seen)
Protocol: The anti-tumour effect was studied in vitro as follows: The growth of MCF-7 cell line (human mammary adenocarcinoma, known to be estrogen-dependent) was evaluated in the presence or absence of estradiol, medroxyprogesterone acetate or the molecules to be investigated. […] The amount of living cells after 4 h, 24 h and 48 h incubations were determined by bioluminescence assay (intracellular ATP determination). […]

{"columns": ["Molecule", "Measured result"],
 "data": [
  ["CCC(C1CCCC1)C(c1ccccc1)c1ccc(O)cc1 (centres unmarked) [Compound 5]", "1000 to 5000 nM"]
]}

Consider the record given below.
Input: State the recorded IC50 for this entry: CCC(C1CCCC1)C(c1ccccc1)c1ccc(O)cc1 (centres unmarked) [Compound 6]
Output: 1000 to 5000 nM
